Hi! I'm sharing some MIC results obtained with Staphylococcus aureus ATCC 25923.
measuredAttribute: MIC (µM)

[[record]]
substancesmiles = "CC[C@H](C)[C@H](NC(=O)[C@H](CCCCN)NC(=O)[C@H](CCCCN)NC(=O)[C@@H](NC(=O)[C@H](C)NC(=O)[C@H](CO)NC(=O)[C@@H](NC(=O)[C@H](C)NC(=O)[C@H](CO)NC(=O)[C@@H]1CCCN1C(=O)[C@@H](NC(=O)[C@H](CC(C)C)NC(=O)[C@H](CO)NC(=O)[C@H](CC(C)C)NC(=O)[C@H](CC(C)C)NC(=O)[C@H](Cc1ccccc1)NC(=O)[C@H](Cc1ccccc1)NC(=O)[C@@H]1CCCN1C(=O)[C@@H](N)CC(C)C)[C@@H](C)CC)[C@@H](C)CC)[C@@H](C)CC)C(N)=O"
readingqualifier = "="
recordedmeasurement = 2.5

[[record]]
substancesmiles = "CC[C@H](C)[C@H](NC(=O)CNC(=O)[C@H](CS)NC(=O)[C@H](Cc1ccccc1)NC(=O)[C@H](CCCCN)NC(=O)[C@H](CCCN=C(N)N)NC(=O)[C@@H]1CCCN1C(=O)[C@H](CCCN=C(N)N)NC(=O)[C@H](CC(=O)O)NC(=O)[C@@H]1CCCN1C(=O)[C@H](C)N)C(=O)N[C@@H](CC(C)C)C(=O)NCC(=O)O"
readingqualifier = ">"
recordedmeasurement = 140

[[record]]
substancesmiles = "CC[C@H](C)[C@H](NC(=O)[C@H](Cc1cnc[nH]1)NC(=O)[C@@H]1CCCN1C(=O)[C@@H](NC(=O)[C@H](CC(C)C)NC(=O)[C@H](CO)NC(=O)[C@H](CC(C)C)NC(=O)[C@@H](N)Cc1ccccc1)[C@@H](C)CC)C(=O)N[C@H](C(=O)N[C@@H](CO)C(=O)NCC(=O)N[C@H](C(=O)N[C@@H](C)C(=O)N[C@@H](CO)C(=O)N[C@@H](CC(C)C)C(=O)N[C@@H](C)C(=O)N[C@@H](CCCCN)C(=O)N[C@@H](Cc1cnc[nH]1)C(=O)N[C@@H](Cc1ccccc1)C(N)=O)C(C)C)C(C)C"
readingqualifier = "="
recordedmeasurement = 6.25

[[record]]
substancesmiles = "CC[C@H](C)[C@H](NC(=O)CNC(=O)[C@@H](N)CO)C(=O)N[C@@H](CCC(N)=O)C(=O)N1CCC[C@H]1C(=O)N[C@@H](CCC(=O)O)C(=O)N[C@@H](CCC(N)=O)C(=O)N[C@@H](Cc1cnc[nH]1)C(=O)N[C@@H](CO)C(=O)N[C@@H](CO)C(N)=O"
readingqualifier = ">"
recordedmeasurement = 100

[[record]]
substancesmiles = "CSCC[C@H](NC(=O)[C@H](CCCN=C(N)N)NC(=O)[C@@H](N)Cc1ccc(O)cc1)C(=O)N[C@@H](Cc1c[nH]c2ccccc12)C(=O)N[C@@H](CCCN=C(N)N)C(=O)N[C@@H](Cc1c[nH]c2ccccc12)C(=O)N[C@@H](CCCN=C(N)N)C(=O)N[C@@H](Cc1c[nH]c2ccccc12)C(=O)N[C@@H](CCCN=C(N)N)C(=O)N[C@@H](Cc1c[nH]c2ccccc12)C(=O)N[C@@H](CCCN=C(N)N)C(N)=O"
readingqualifier = "="
recordedmeasurement = 2.72

[[record]]
substancesmiles = "CC[C@H](C)[C@H](N)C(=O)N[C@@H](CC(C)C)C(=O)NCC(=O)N[C@@H](CCCCN)C(=O)N[C@@H](CC(C)C)C(=O)N[C@@H](CC(C)C)C(=O)N[C@@H](CO)C(=O)N[C@H](C(=O)N[C@@H](C)C(=O)N[C@@H](C)C(=O)NCC(=O)N[C@@H](CC(C)C)C(=O)N[C@@H](CC(C)C)C(=O)N[C@@H](CO)C(=O)N[C@@H](CCCCN)C(=O)N[C@@H](CC(C)C)C(N)=O)[C@@H](C)O"
readingqualifier = "="
recordedmeasurement = 32

[[record]]
substancesmiles = "CC[C@H](C)[C@H](NC(=O)[C@H](C)N)C(=O)N[C@@H](CC(C)C)C(=O)N[C@H](C(=O)N[C@H](C(=O)N[C@@H](CC(C)C)C(=O)N[C@@H](C)C(=O)N[C@@H](CC(N)=O)C(=O)N[C@@H](Cc1c[nH]c2ccccc12)C(=O)N[C@@H](C)C(=O)N[C@@H](CCCN=C(N)N)C(=O)N[C@@H](CCCCN)C(=O)N[C@@H](Cc1ccccc1)C(=O)N[C@@H](CC(C)C)C(N)=O)[C@@H](C)O)[C@@H](C)O"
readingqualifier = "="
recordedmeasurement = 37.5

[[record]]
substancesmiles = "CC[C@H](C)[C@H](NC(=O)[C@H](C)N)C(=O)N[C@@H](CC(C)C)C(=O)N[C@@H](CCCN=C(N)N)C(=O)N[C@@H](CCCCN)C(=O)N[C@@H](C)C(=O)N[C@H](C(=O)N[C@@H](CCCN=C(N)N)C(=O)N[C@@H](CCCN=C(N)N)C(=O)N[C@@H](CC(C)C)C(=O)N[C@H](C(=O)N[C@@H](CCCCN)C(=O)N[C@@H](CC(C)C)C(=O)N[C@H](C(=O)N[C@H](C(N)=O)C(C)C)[C@@H](C)CC)C(C)C)[C@@H](C)O"
readingqualifier = ">"
recordedmeasurement = 25

[[record]]
substancesmiles = "CC[C@H](C)[C@H](NC(=O)CN)C(=O)N[C@@H](CC(C)C)C(=O)N[C@@H](CCCCN)C(=O)N[C@H](C(=O)N[C@H](C(=O)N[C@@H](CCCCN)C(=O)N[C@@H](CO)C(=O)N[C@H](C(=O)N[C@@H](C)C(=O)N[C@@H](CO)C(=O)N[C@@H](CCCCN)C(=O)N[C@@H](CC(C)C)C(=O)N[C@@H](CCCCN)C(=O)N[C@@H](CCCN=C(N)N)C(=O)N[C@@H](CCCCN)C(=O)N[C@@H](C)C(=O)N[C@@H](CCCCN)C(=O)O)[C@@H](C)CC)[C@@H](C)CC)[C@@H](C)O"
readingqualifier = ">"
recordedmeasurement = 25.2

[[record]]
substancesmiles = "C[C@H](NC(=O)[C@H](C)NC(=O)[C@H](Cc1c[nH]c2ccccc12)NC(=O)[C@H](Cc1c[nH]c2ccccc12)NC(=O)[C@H](Cc1c[nH]c2ccccc12)NC(=O)[C@@H](N)CCCN=C(N)N)C(N)=O"
readingqualifier = ">"
recordedmeasurement = 64


----------
Recorded MIC for the following compounds
test system: Acinetobacter baumannii; assay: ≥ marks a high value that may be exact or a test limit, other limits are often not marked, values filed in µg/mL are converted to µM
measuredAttribute: MIC (µM)

[[record]]
substancesmiles = "CC[C@H](C)[C@H](NC(=O)[C@H](CCCCN)NC(=O)[C@H](C)NC(=O)[C@H](C)NC(=O)[C@H](CC(C)C)NC(=O)[C@H](CCCN=C(N)N)NC(=O)[C@H](CC(C)C)NC(=O)[C@H](C)NC(=O)[C@H](CC(C)C)NC(=O)[C@H](CCCCN)NC(=O)[C@H](CC(C)C)NC(=O)[C@H](CCCCN)NC(=O)[C@H](CCCCN)NC(=O)[C@H](CCSC)NC(=O)[C@@H]1CCCN1)C(=O)N[C@@H](C)C(=O)N1CCC[C@H]1C(=O)N[C@H](C(=O)N[C@@H](Cc1c[nH]c2ccccc12)C(=O)O)C(C)C"
measuredattribute = "MIC"
recordedmeasurement = 4

[[record]]
substancesmiles = "CC(C)[C@H](NC(=O)[C@H](CCCN=C(N)N)NC(=O)[C@H](Cc1c[nH]c2ccccc12)NC(=O)[C@H](CCCN=C(N)N)NC(=O)[C@@H](NC(=O)[C@H](CCCCN)NC(=O)[C@H](Cc1c[nH]c2ccccc12)NC(=O)[C@H](CCCN=C(N)N)NC(=O)[C@@H](NC(=O)[C@H](CCCN=C(N)N)NC(=O)[C@@H](N)Cc1c[nH]c2ccccc12)C(C)C)C(C)C)C(=O)N[C@@H](CCCCN)C(N)=O"
measuredattribute = "MIC"
recordedmeasurement = 2.83

[[record]]
substancesmiles = "CC(C)C[C@H](NC(=O)[C@@H]1CCCN1C(=O)[C@H](CCCCN)NC(=O)[C@H](CC(C)C)NC(=O)[C@H](CC(C)C)NC(=O)[C@@H]1CCCN1C(=O)[C@H](CCCCN)NC(=O)[C@H](CC(C)C)NC(=O)[C@H](CC(C)C)NC(=O)[C@@H]1CCCN1C(=O)[C@H](CCCCN)NC(=O)[C@H](CC(C)C)NC(=O)[C@H](CC(C)C)NC(=O)[C@@H]1CCCN1C(=O)[C@H](CCCCN)NC(=O)[C@H](CC(C)C)NC(=O)[C@H](CC(C)C)NC(=O)[C@@H]1CCCN1C(=O)[C@H](CCCCN)NC(=O)[C@@H](N)CC(C)C)C(N)=O"
measuredattribute = "MIC"
recordedmeasurement = 4

[[record]]
substancesmiles = "CC[C@H](C)[C@H](NC(=O)[C@H](C)N)C(=O)N[C@@H](CC(C)C)C(=O)N[C@@H](CCCN=C(N)N)C(=O)N[C@@H](CCCCN)C(=O)N[C@@H](C)C(=O)N[C@H](C(=O)N[C@@H](CCCN=C(N)N)C(=O)N[C@@H](CCCN=C(N)N)C(=O)N[C@@H](CC(C)C)C(=O)N[C@H](C(=O)N[C@@H](CCCCN)C(=O)N[C@@H](CC(C)C)C(=O)N[C@H](C(=O)N[C@H](C(N)=O)C(C)C)[C@@H](C)CC)C(C)C)[C@@H](C)O"
measuredattribute = "MIC"
recordedmeasurement = 6.25

[[record]]
substancesmiles = "CC(C)C[C@H](NC(=O)[C@H](CCCN=C(N)N)NC(=O)[C@H](Cc1c[nH]c2ccccc12)NC(=O)[C@H](CCCN=C(N)N)NC(=O)[C@@H](NC(=O)[C@H](CCCN=C(N)N)NC(=O)[C@H](Cc1c[nH]c2ccccc12)NC(=O)[C@H](CCCN=C(N)N)NC(=O)[C@H](CC(C)C)NC(=O)[C@H](CCCN=C(N)N)NC(=O)[C@@H](N)Cc1c[nH]c2ccccc12)[C@@H](C)O)C(=O)N[C@@H](CCCN=C(N)N)C(N)=O"
measuredattribute = "MIC"
recordedmeasurement = 4

[[record]]
substancesmiles = "CC[C@H](C)[C@H](NC(=O)CN)C(=O)N[C@@H](CC(C)C)C(=O)N[C@@H](CCCCN)C(=O)N[C@H](C(=O)N[C@H](C(=O)N[C@@H](CCCCN)C(=O)N[C@@H](CO)C(=O)N[C@H](C(=O)N[C@@H](C)C(=O)N[C@@H](CO)C(=O)N[C@@H](CCCCN)C(=O)N[C@@H](CC(C)C)C(=O)N[C@@H](CCCCN)C(=O)N[C@@H](CCCN=C(N)N)C(=O)N[C@@H](CCCCN)C(=O)N[C@@H](C)C(=O)N[C@@H](CCCCN)C(=O)O)[C@@H](C)CC)[C@@H](C)CC)[C@@H](C)O"
measuredattribute = "MIC"
recordedmeasurement = 2.21

[[record]]
substancesmiles = "CC(C)C[C@H](NC(=O)[C@H](CC(C)C)NC(=O)[C@H](CCCCN)NC(=O)[C@H](CC(C)C)NC(=O)[C@H](CC(C)C)NC(=O)[C@H](CCCCN)NC(=O)[C@H](CCCCN)NC(=O)[C@H](CC(C)C)NC(=O)[C@H](CC(C)C)NC(=O)[C@H](CCCCN)NC(=O)[C@H](CCCCN)NC(=O)[C@H](CC(C)C)NC(=O)[C@H](CC(C)C)NC(=O)[C@H](CCCCN)NC(=O)[C@@H](N)CC(C)C)C(N)=O"
measuredattribute = "MIC"
recordedmeasurement = 6.2

